Recorded values, source patent US20170088605A1.

# ASSAY TARGET: T1, JCV VLP (consensus) (JC virus, UniProt P03089 1-354)
# T1 construct: also called JCV VLPs; JC virus VLPs
# TEST SUMMARY: ELISA on plates coated with JCV VLPs, OD 450 nm
Measured EC50 (read off the curve), listed per entry for reference.

Sample 2077-10-1 (antibody, V domains shown) VH: EVQLQQSGPELVKPGASMKISCKASGYSFTGYTMNWMKQGHGKNLEWIGLFNPYNGGPNYNQKFKGKATLTVDKSSSTAYMELLSLTSEDSAVYYCARLRYYGIGDDFFDYWGQGTTLTVSS VL: DIVMTQSHKFMSTSVGDRVSITCKASQDVGTAVAWYQQKPGQSPKLLIYWASTRHTGVPDRFTGSGSGTDFTLTITNVQSEDLTDYFCQQYSSYPYTFGGGTKLEIK — what was its EC50 (read off the curve)?
~90 pM

Sample 2077-7-5 (antibody, V domains shown) VH: EVQLQQSGPELVKPGASMKISCKASGYSFTGYTMNWVKQSHGKNLEWIGLFNPYNGGINYNQKFKGKATLTVDKSSSTAYMELLSLTSEDSAVYYCARLRYYGIGDDFFDYWGQGTSLTVSS VL: DIVMTQSHKFMSTSVGDRVSITCKASRDVGTAVAWYQQKPGQSPKLLIYWASTRHTGVPDRFTGSGSGTDFTLTISNVQSEDLADYFCQQYSNYPYTFGGGTKLEMK — what was its EC50 (read off the curve)?
~600 pM

Sample 2077-26-1 (antibody, V domains shown) VH: EVQLQQSGPDLVKPGASMKLSCKASGYSFTGYTMNWVKQSHGKNLEWIGLFNPYNGGPSYNQKFKGKATLTVDKSSSTAYMELLSLTPEDSAVYYCARLRYYGIGDDFFDYWGQGTTLTVSS VL: DIVMTQSHKFMSTSVGDRVSITCKASQDVGTAVAWYQEKPGQSPKLLIYWASTRHTGVPDRFTGSGSGTDFTLTISNVQSEDLAYYFCQQYSNYPYTFGGGTKLEIK — what was its EC50 (read off the curve)?
~60 pM
